For each record, write down the corresponding inhibition.
- experimental_system: D(2) dopamine receptor (Homo sapiens)
- run_description: HTS Assay for Allosteric Antagonists of the Human D2 Dopamine Receptor: Primary Screen for Antagonists; also: 0% is about no effect
- run_conditions: HEK293 TREx D2 cells, calcium flux, dopamine EC80; at 10 µM; active compounds read high
The whole screen tested about 340,000 compounds, of which about 6,900 (2%) were called active. Many of the other results were omitted from the sample, so actives are more common in it than they were.
Give bare numbers, in %.

Known results for compounds:
INSERT INTO assay_data (compound, val) VALUES
  ('O=C(Nc1cccc(C(F)(F)F)c1)c1ccc(N2CCNCC2)c([N+](=O)[O-])c1', 8.47),
  ('O=C(Nc1ccc(N2CCOCC2)c(Cl)c1)c1ccc(S(=O)(=O)N2CCOCC2)cc1', 34.4),
  ('Cc1ccnc(NS(=O)(=O)c2ccc(NC(=O)c3ccc(S(=O)(=O)N4CCOCC4)cc3)cc2)n1', -5.53),
  ('O=C(CN1CCN(c2cccc(Cl)c2)CC1)Nc1ccc(S(=O)(=O)N2CCOCC2)cc1', 30.5),
  ('Cc1ccccc1C(OCCN(C)C)C1CCCCC1 (centres undefined)', 86.8),
  ('COc1cccc(C2=CC(=O)C[C@H](c3ccc(F)cc3)C2)c1OC', 2.64);

Report inhibition for each item below.
1. CCc1nnc(NC(=O)CSc2nnc(-c3ccncc3)n2Cc2ccccc2)s1
2. Cc1ccccc1C(OCC(O)CN1CCCCC1CCO)c1ccccc1 (centres undefined)
3. O=C(CO/N=C/c1ccc(OC(F)F)cc1)NCc1ccc(F)cc1

1: 30.7; 2: -4.51; 3: 4.16

----------
- experimental_system: D(2) dopamine receptor (Homo sapiens) (UniProt P14416)
- Sequence (P14416 whole entry, looked up): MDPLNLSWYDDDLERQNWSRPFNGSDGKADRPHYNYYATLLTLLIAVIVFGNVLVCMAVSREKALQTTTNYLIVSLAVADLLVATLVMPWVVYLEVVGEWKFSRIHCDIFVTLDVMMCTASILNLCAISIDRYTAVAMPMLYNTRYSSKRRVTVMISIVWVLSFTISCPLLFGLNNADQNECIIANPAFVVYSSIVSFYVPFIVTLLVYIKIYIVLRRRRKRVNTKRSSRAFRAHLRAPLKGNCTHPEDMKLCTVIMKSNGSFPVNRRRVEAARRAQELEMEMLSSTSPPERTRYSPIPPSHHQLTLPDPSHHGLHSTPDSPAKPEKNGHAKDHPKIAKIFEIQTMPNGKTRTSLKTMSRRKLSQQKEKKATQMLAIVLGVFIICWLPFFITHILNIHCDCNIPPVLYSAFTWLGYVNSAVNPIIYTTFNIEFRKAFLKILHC
- run_description: HTS Assay for Allosteric Antagonists of the Human D2 Dopamine Receptor: Primary Screen for Antagonists; also: 0% is about no effect
- run_conditions: HEK293 TREx D2 cells, calcium flux, dopamine EC80; at 10 µM; active compounds read high
The campaign covered roughly 340,000 compounds. About 6,900 (2%) were called active. The sample as a whole holds a higher share of actives than the screen did.
Could you please report measured inhibition for the items listed next?
One number for each entry, in %.

State recorded inhibition for all listed compounds.
1. CC(=O)NC12CC3CC(C1)CC(C(=O)N1CCN(C(=O)c4ccco4)CC1)(C3)C2
2. O=S(=O)(c1cccs1)N1CCN(CCOc2ccccc2)CC1
3. Nc1ccc(C(=O)N2CCN(S(=O)(=O)c3ccc(Cl)cc3)CC2)cc1[N+](=O)[O-]

[-36.2, -9.4, 1.49]

Hi, could you look up inhibition for each item in my list?
1. COc1ccccc1C(=O)Nc1ccc(C)c(S(=O)(=O)N2CCCCC2)c1
2. CCC(C)N(C(=O)CSc1nnnn1-c1ccccc1OC)C1CCS(=O)(=O)C1 (stereo unspecified)
3. CCOC(=O)C1CCN(C(=O)Cn2nc(C)c3c(C)n(-c4ccccc4)nc3c2=O)CC1
4. COc1ccccc1OCC(O)CN1CCOCC1 (stereo unspecified)
5. CCn1c(C)c(C)c2cc(C(=O)N3CCN(c4cccc(C)c4C)CC3)ccc21

[9.57, -18.8, 2.33, 3.41, 35.7]

Batch: inhibition for all items listed.
1. CC(OC(=O)c1cc2ccccc2o1)C(=O)Nc1ccc(N2CCOCC2)cc1 (stereo unspecified)
2. COc1ccc(OC)c(CNC(=O)Cn2nc(C)c3c(C)n(-c4ccc(C)cc4)nc3c2=O)c1
3. O=C(c1cc2ccccc2o1)N1CCN(S(=O)(=O)c2ccc(Cl)s2)CC1
4. CCOc1ccc(C(C)NC(=O)CN2C(=O)NC3(CCCCC3)C2=O)cc1OCC (stereo unspecified)
5. COc1ccc(CCNC(=O)COc2ccc3c(c2)OCO3)cc1
6. N#CC1(NC(=O)COC(=O)Cc2n[nH]c(=O)c3ccccc23)CCCCC1

8.62
30
17.4
-2.35
-6.03
-5.98

Go through the list and state inhibition for each entry.
1. COc1ccccc1/C=C/C(=O)OCC(=O)NC1CCCCCC1
2. NC(=O)c1ccsc1NC(=O)COC(=O)COc1ccc(C=O)cc1

-12.9
0.0079
